Data origin: the Immune Epitope Database (IEDB)

- TESTED ON: HLA-B*15:17
- PROCEDURE DETAILS: IEDB peptide-MHC binding, purified MHC/competitive/fluorescence; filed as Kd, often an IC50 or EC50 that approximates it; bounds were set here for any values at or beyond the usual limits of such assays
- RECORDED CONDITIONS: source organism: Orthohantavirus andesense
pKd: −log10 of the molar value.

CHAIN: SIKFKRKLM
pKd: ≤ 4.70

====

- TESTED ON: HLA-A*68:02
- PROCEDURE DETAILS: IEDB peptide-MHC binding, purified MHC/competitive/fluorescence; filed as Kd, often an IC50 or EC50 that approximates it; bounds were set here for any values at or beyond the usual limits of such assays
- RECORDED CONDITIONS: source organism: Rickettsia akari str. Hartford
pKd: −log10 of the molar value.

CHAIN: FTARIIIFS
pKd: 7.56

====

- TESTED ON: HLA-A*68:23
- PROCEDURE DETAILS: IEDB peptide-MHC binding, purified MHC/competitive/fluorescence; filed as Kd, often an IC50 or EC50 that approximates it; bounds were set here for any values at or beyond the usual limits of such assays
- RECORDED CONDITIONS: source organism: Burkholderia pseudomallei 406e

CHAIN: MSWGWRLPF
Kd [µM]: 0.0802

====

- TESTED ON: HLA-A*24:03
- PROCEDURE DETAILS: IEDB peptide-MHC binding, purified MHC/direct/fluorescence; filed as Kd, often an IC50 or EC50 that approximates it; bounds were set here for any values at or beyond the usual limits of such assays
- RECORDED CONDITIONS: source organism: Salmonella enterica subsp. enterica serovar Typhi

CHAIN: EHFYWGSVF
TESTED ON: HLA-A*24:03
Kd: 0.318 µM

====

- TESTED ON: HLA-B*08:02
- PROCEDURE DETAILS: IEDB peptide-MHC binding, purified MHC/direct/fluorescence; filed as Kd, often an IC50 or EC50 that approximates it; bounds were set here for any values at or beyond the usual limits of such assays
- RECORDED CONDITIONS: source organism: Giardia lamblia ATCC 50803
pKd: −log10 of the molar value.
Each item that follows carries a reported pKd.
TEST READOUT: pKd

CHAIN: MIYELCTFR
CENSOR SYMBOL: ≤
ASSAY RESULT: 4.70
//
CHAIN: ELRKRNEAL
CENSOR SYMBOL: =
ASSAY RESULT: 5.55

====

Each item that follows carries a reported Kd.
- TESTED ON: HLA-A*26:01
- PROCEDURE DETAILS: IEDB peptide-MHC binding, purified MHC/competitive/radioactivity; filed as Kd, often an IC50 or EC50 that approximates it; bounds were set here for any values at or beyond the usual limits of such assays
- RECORDED CONDITIONS: source organism: Dengue virus 4 Philippines/H241/1956
TEST READOUT: Kd

CHAIN: ETRAETWMSS
TEST READOUT: Kd
ASSAY RESULT: 504 nM

CHAIN: DTVTYECPL
TEST READOUT: Kd
ASSAY RESULT: 6130 nM

CHAIN: MSYTMCSGKF
TEST READOUT: Kd
ASSAY RESULT: 1510 nM

====

Each item that follows carries a reported Kd.
- TESTED ON: HLA-A*24:02
- PROCEDURE DETAILS: IEDB peptide-MHC binding, purified MHC/competitive/radioactivity; filed as Kd, often an IC50 or EC50 that approximates it; bounds were set here for any values at or beyond the usual limits of such assays
- RECORDED CONDITIONS: source organism: Mammarenavirus brazilense
TEST READOUT: Kd (nM)

CHAIN: SFYCDPKRYF
CENSOR SYMBOL: =
ASSAY RESULT: 443
--
CHAIN: LFWAVKPKI
CENSOR SYMBOL: =
ASSAY RESULT: 2770
--
CHAIN: AYVNQAHHI
CENSOR SYMBOL: =
ASSAY RESULT: 66.2
--
CHAIN: LFQLIFFLT
CENSOR SYMBOL: ≥
ASSAY RESULT: 22300
--
CHAIN: GERSRCYSLY
CENSOR SYMBOL: ≥
ASSAY RESULT: 70300
